Tested on: 361931-004-R-J1-PDC multicell spheroid viability;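 also: spheroids exposed to agents for seven days before readout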
Experiment: Anticancer human tumor 361931-004-R-J1-PDC patient-derived colon adenocarcinoma cell line growth inhibition [PI3K]
Conditions: curve of first compound; second compound 0.0316 µM
pIC50: −log10 of the molar value.
Assay metric: pIC50

INSERT INTO assay_data (molecule, assay_metric, value_measured) VALUES
  ('CC(C)NCC(C(=O)N1CCN(c2ncnc3c2C(C)CC3O)CC1)c1ccc(Cl)cc1 (stereo not drawn) + CC(Nc1ncnc2nc[nH]c12)c1cc2cccc(Cl)c2c(=O)n1-c1ccccc1', 'pIC50', 5.45),
  ('CCN1CCN(Cc2ccc(Nc3ncc(F)c(-c4cc(F)c5nc(C)n(C(C)C)c5c4)n3)nc2)CC1 + CC(Nc1ncnc2nc[nH]c12)c1cc2cccc(Cl)c2c(=O)n1-c1ccccc1', 'pIC50', '< 6.00'),
  ('CC(C)n1nc(-c2ccc3oc(N)nc3c2)c2c(N)ncnc21 + CC(Nc1ccc2c(c1)OCCn1cc(N3C(=O)OCC3C(F)F)nc1-2)C(N)=O', 'pIC50', '< 7.00');
